- System: MDA 231 cells
- methodDescription: Cell growth inhibition: MTT assay, MDA 231 (ER- breast carcinoma)
- Assay type: cell-based
- measurementConditions: Homo sapiens, MDA-MB-231; 24 hours, 3.3 μM; read-out: % inhibition of cell growth compared to no drug control
propertyMeasured: inhibition at 3.3 µM (%)
Response body: numeric value in %, unit text excluded.

Let me know recorded inhibition at 3.3 µM for CC(/C=C/C=C\c1cc(C(F)(F)F)cc(C(F)(F)F)c1)=C\C(=O)Nc1ccc(O)cc1 , thanks. 33

Give the reported inhibition at 3.3 µM for this molecule. C/C(=C/C=C/C(C)=C/C(=O)Nc1ccc(O)cc1)c1cc(Br)cc(Br)c1 65

Answer with the recorded inhibition at 3.3 µM of C/C(=C/C=C/C(C)=C/C(=O)Nc1ccc(O)cc1)c1cc(C)cc(C)c1 only. 51

Report inhibition at 3.3 µM, nothing else, for this molecule: COc1cc(OC)cc(\C(C)=C/C=C/C(C)=C/C(=O)Nc2ccc(O)cc2)c1 21

Please give measured inhibition at 3.3 µM of the following entry: C/C(=C/C=C/C(C)=C/C(=O)Nc1ccc(O)cc1)c1ccccc1 57

Specify reported inhibition at 3.3 µM for the molecule shown: C/C(=C/C=C/C(C)=C/C(=O)Nc1ccc(O)cc1)c1cc(C(F)(F)F)cc(C(F)(F)F)c1 30

Please look at this molecule and report its inhibition at 3.3 µM: CC(/C=C/C(C)=C/C(=O)Nc1ccc(O)cc1)=C(\C)c1cc(C(F)(F)F)cc(C(F)(F)F)c1 0

====

Give measured inhibition at 10 µM for each item. Keep answers brief.
- Test system: MDA 435 cells
- methodDescription: Cell growth inhibition: MTT assay, MDA 435 (ER- breast carcinoma)
- Type: cell-based
- measurementConditions: Homo sapiens, MDA435; 48 hours, 10.0 μM; read-out: % inhibition of cell growth compared to no drug control
Give your result in % as a bare value.

Tell us which inhibition at 10 µM value is on record for C/C(=C/C=C/C(C)=C/C(=O)Nc1ccc(O)cc1)c1cc(C)cc(C)c1 98

# return recorded inhibition at 10 µM for entry CC(/C=C/C=C\c1cc(C(F)(F)F)cc(C(F)(F)F)c1)=C\C(=O)Nc1ccc(O)cc1 99

Provide inhibition at 10 µM value for the following compound: C/C(=C/C=C/C(C)=C/C(=O)Nc1ccc(O)cc1)c1cc(C(F)(F)F)cc(C(F)(F)F)c1 95

Respond only with inhibition at 10 µM recorded for COc1cc(OC)cc(\C(C)=C/C=C/C(C)=C/C(=O)Nc2ccc(O)cc2)c1 61

Name the recorded inhibition at 10 µM of the item CC(/C=C/C(C)=C/C(=O)Nc1ccc(O)cc1)=C(\C)c1cc(C(F)(F)F)cc(C(F)(F)F)c1 in your answer. 96

Using the record for C/C(=C/C=C/C(C)=C/C(=O)Nc1ccc(O)cc1)c1cc(Br)cc(Br)c1 , state its measured inhibition at 10 µM. 70

Respond only with inhibition at 10 µM recorded for C/C(=C/C=C/C(C)=C/C(=O)Nc1ccc(O)cc1)c1ccccc1 42

====

- Test system: MDA 435 cells
- methodDescription: Cell growth inhibition: MTT assay, MDA 435 (ER- breast carcinoma)
- Assay type: cell-based
- measurementConditions: Homo sapiens, MDA435; 72 hours, 10.0 μM; read-out: % inhibition of cell growth compared to no drug control
propertyMeasured: inhibition at 10 µM (%)
Give the quantity in %, number only.

Please indicate inhibition at 10 µM recorded for C/C(=C/C=C/C(C)=C/C(=O)Nc1ccc(O)cc1)c1ccccc1 68

Name the recorded inhibition at 10 µM of the compound listed here: C/C(=C/C=C/C(C)=C/C(=O)Nc1ccc(O)cc1)c1cc(C(F)(F)F)cc(C(F)(F)F)c1 98

Input COc1cc(OC)cc(\C(C)=C/C=C/C(C)=C/C(=O)Nc2ccc(O)cc2)c1 , output reported inhibition at 10 µM. 87

# return recorded inhibition at 10 µM for input C/C(=C/C=C/C(C)=C/C(=O)Nc1ccc(O)cc1)c1cc(C)cc(C)c1 91

Report inhibition at 10 µM for CC(/C=C/C=C\c1cc(C(F)(F)F)cc(C(F)(F)F)c1)=C\C(=O)Nc1ccc(O)cc1 100

Give the reported inhibition at 10 µM for this compound. CC(/C=C/C(C)=C/C(=O)Nc1ccc(O)cc1)=C(\C)c1cc(C(F)(F)F)cc(C(F)(F)F)c1 99

Hello, please tell me recorded inhibition at 10 µM for this one: C/C(=C/C=C/C(C)=C/C(=O)Nc1ccc(O)cc1)c1cc(Br)cc(Br)c1 87

====

- System: MDA 231 cells
- methodDescription: Cell growth inhibition: MTT assay, MDA 231 (ER- breast carcinoma)
- Format: cell-based
- measurementConditions: Homo sapiens, MDA-MB-231; 48 hours, 10.0 μM; read-out: % inhibition of cell growth compared to no drug control
# inhibition at 10 µM >= 70% gives Satisfied, anything below gives Not satisfied

Would you say C/C(=C/C=C/C(C)=C/C(=O)Nc1ccc(O)cc1)c1cc(Br)cc(Br)c1 shows inhibition at 10 µM at minimum 70%? Satisfied

Given C/C(=C/C=C/C(C)=C/C(=O)Nc1ccc(O)cc1)c1ccccc1 , state whether its inhibition at 10 µM is at least 70%. Satisfied

Check the entry C/C(=C/C=C/C(C)=C/C(=O)Nc1ccc(O)cc1)c1cc(C(F)(F)F)cc(C(F)(F)F)c1 : does inhibition at 10 µM equal or exceed 70%? Not satisfied

Could you verify whether the entry CC(/C=C/C(C)=C/C(=O)Nc1ccc(O)cc1)=C(\C)c1cc(C(F)(F)F)cc(C(F)(F)F)c1 shows inhibition at 10 µM of no less than 70%? Not satisfied

Kindly determine if inhibition at 10 µM recorded for COc1cc(OC)cc(\C(C)=C/C=C/C(C)=C/C(=O)Nc2ccc(O)cc2)c1 is above or exactly 70%. Not satisfied

Record CC(/C=C/C=C\c1cc(C(F)(F)F)cc(C(F)(F)F)c1)=C\C(=O)Nc1ccc(O)cc1 ; criterion: inhibition at 10 µM no lower than 70%. Met? Not satisfied

// provenance: patent US6310247A
